assay.explanation: Study A dose-escalation protocol: 17-AAG pharmacokinetics in plasma (HPLC)
Format: in vivo
experimental.context: female, dog, 250 mg/m2; Study A, dogs, plasma, AUC0–8h, single IV dose 250 mg/m^2, mean ± SD
recorded.endpoint: AUC

// fetch AUC given entry C=CCNC1=C2C[C@@H](C)C[C@H](OC)[C@H](O)[C@@H](C)/C=C(\C)[C@H](OC(N)=O)[C@@H](OC)/C=C\C=C(/C)C(=O)NC(=CC1=O)C2=O
9630 ng·h/mL

====

assay.explanation: Study B multiple administrations of 150 mg/m^2: 17-AAG pharmacokinetics in plasma (HPLC)
Format: in vivo, dogs
experimental.context: both sexes, dog, plasma, iv, 150 mg/m2, AUC 0–8 h, Study B, dogs, 3rd of three IV administrations of 150 mg/m^2 at 48 h intervals, mean ± SD
recorded.endpoint: AUC(0-t) (ng·h/mL)
Answers are plain numbers, in ng·h/mL.

Fill in AUC(0-t) for record C=CCNC1=C2C[C@@H](C)C[C@H](OC)[C@H](O)[C@@H](C)/C=C(\C)[C@H](OC(N)=O)[C@@H](OC)/C=C\C=C(/C)C(=O)NC(=CC1=O)C2=O [17-AAG, 17-(allylamino)-17-demethoxygeldanamycin]
6850

====

assay.explanation: Study A dose-escalation protocol: 17-AAG pharmacokinetics in plasma (HPLC)
Type: in vivo
experimental.context: female, dog, 100 mg/m2; Study A, dogs, plasma, single IV dose 100 mg/m^2, mean ± SD; read-out: t½ (converted)
recorded.endpoint: half-life

Supply half-life value. Item: C=CCNC1=C2C[C@@H](C)C[C@H](OC)[C@H](O)[C@@H](C)/C=C(\C)[C@H](OC(N)=O)[C@@H](OC)/C=C\C=C(/C)C(=O)NC(=CC1=O)C2=O
36.6 min

====

assay.explanation: Study B: 17-AAG pharmacokinetics in subcutaneous interstitial fluid (tissue cages, HPLC)
Format: in vivo
experimental.context: both sexes, dog, subcutaneous interstitial fluid, iv, 150 mg/m2, Study B, dogs, subcutaneous interstitial fluid, 2nd administration of 150 mg/m^2 IV, mean ± SD; read-out: AUC 0–24 h
recorded.endpoint: AUC(0-t) (ng·h/mL)
Answers are plain numbers, in ng·h/mL.

Please look at this molecule and report its AUC(0-t): C=CCNC1=C2C[C@@H](C)C[C@H](OC)[C@H](O)[C@@H](C)/C=C(\C)[C@H](OC(N)=O)[C@@H](OC)/C=C\C=C(/C)C(=O)NC(=CC1=O)C2=O
4070

====

assay.explanation: Study B: 17-AAG pharmacokinetics in subcutaneous interstitial fluid (tissue cages, HPLC)
Format: in vivo
experimental.context: both sexes, dog, subcutaneous interstitial fluid, iv, 150 mg/m2, Study B, dogs, subcutaneous interstitial fluid, 1st administration of 150 mg/m^2 IV, mean ± SD; read-out: AUC 0–6 h
Description: Study B involved 9 healthy dogs (8 females and 1 male), including the 4 females from Study A after wash-out and upon confirmation of regular laboratory evaluations. […] Tolerability evaluations were performed via clinical examinations and blood sampling for laboratory evaluation after each treatment. […] Cmax, half-life (t ½), distribution volume, and clearance were also determined. Data were analyzed in Excel and WinNonlin using a mono-compartmental model.
recorded.endpoint: AUC(0-t) (ng·h/mL)
Give bare numbers, in ng·h/mL.

Item C=CCNC1=C2C[C@@H](C)C[C@H](OC)[C@H](O)[C@@H](C)/C=C(\C)[C@H](OC(N)=O)[C@@H](OC)/C=C\C=C(/C)C(=O)NC(=CC1=O)C2=O [17-AAG, 17-(allylamino)-17-demethoxygeldanamycin] : provide AUC(0-t)
2300
